# assayNotes: Displacement of [3H]prazosin from alpha-1-adrenoceptor in Wistar rat cerebral cortex membrane
# Type: tissue-based
Reported pKi values for the following compounds.
Just so you know, pKi here is -log10 of the concentration in molar units; reply with that number alone.

Some compounds with known pKi results, for comparison:
compound	valueType	resultValue
CCOc1ccccc1OCCN1CCN(c2cnn(CCCN3CCN(c4ccccc4OC)CC3)c(=O)c2Cl)CC1	pKi	10.30
COc1ccccc1N1CCN(CCCN2C(=O)C3C(c4ccccc4N3C)N(C)C2=O)CC1 (stereo not given)	pKi	10.00
COc1ccccc1N1CCN(C(C)CCN2C(=O)C3Nc4ccccc4C3N(C)C2=O)CC1 (stereo not given)	pKi	10.00
COc1ccccc1N1CCN(C(C)CN2C(=O)NC3c4ccccc4OC3C2=O)CC1 (stereo not given)	pKi	10.00

We now examine a further compound.
// lookup pKi for CCOc1ccccc1OCCN1CCN(c2cnn(CCCCCN3CCN(c4ccccc4OC(C)C)CC3)c(=O)c2Cl)CC1 10.30
